# System: Caco-2
# experiment: Cell membrane permeability for the compound determined by human Caco-2 monolayer assay (10e-5 cm/min)
# Format: functional

| smiles.notation | Pm |
| --- | --- |
| COc1ccc(-c2cn(Cc3ccccc3)c3ncnc(N)c23)cc1 | 78.2 10e-5*cm/min |
| COc1ccc(-c2cn(Cc3ccccc3)c3ccc(O)nc23)cc1 | 90.5 10e-5*cm/min |
| COc1ccc(Cn2cc(-c3ccc(OC)cc3)c3nc(O)ccc32)cc1 | 83 10e-5*cm/min |
| COc1ccc(Cn2cc(-c3ccc(OC)cc3)c3c(N)ncnc32)cc1 | 61.9 10e-5*cm/min |
